biological target: human mu opioid receptor (Homo sapiens)
Sequence (P35372 whole entry): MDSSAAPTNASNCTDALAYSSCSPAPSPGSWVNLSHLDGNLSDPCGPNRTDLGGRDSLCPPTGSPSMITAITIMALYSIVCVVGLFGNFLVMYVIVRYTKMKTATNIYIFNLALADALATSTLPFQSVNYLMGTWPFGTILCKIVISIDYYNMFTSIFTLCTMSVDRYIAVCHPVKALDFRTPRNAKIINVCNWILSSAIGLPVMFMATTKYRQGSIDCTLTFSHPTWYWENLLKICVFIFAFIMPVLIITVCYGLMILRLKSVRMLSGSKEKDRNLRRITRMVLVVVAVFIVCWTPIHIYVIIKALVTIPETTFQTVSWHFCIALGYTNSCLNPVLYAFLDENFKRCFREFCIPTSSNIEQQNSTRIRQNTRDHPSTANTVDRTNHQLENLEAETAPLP
endpoint name: Ki
Form entry: enter the amount, then its unit.

Output Ki of CCC1(CC)c2cc(O)ccc2C[C@@H](OC)[C@@H]1NCC(Cc1ccccc1)C(=O)O (relative stereo) [Example 11]
1260 pM

Output Ki of COC1Cc2ccc(C(N)=O)cc2C(C)(C)C1NCCC(=O)N1CCCCC1 (racemic) [Example 1]
100 pM
